Values were extracted from patent US9409952B2.

- Protocol details: PAMPA (parallel artificial membrane permeability assay)
- Assay type: in vitro ADME
- Study conditions: PAMPA; membrane permeation rate (Pe); 50 mM MOPSO buffer pH 6.5 with 5.0% glycocholic acid, 37° C., 18 hours; read-out: iPAMPA Pe
Starred links: 1 amine or outer side, 2 acyl side, 3 side chain; linkers in the order of their positions; H or OH if unused. Positions of bridges follow the written chain, without caps; N, C: chain ends. Non-standard residues stand in square brackets, D forms with d. Residues, ends and D or L forms follow the SMILES beside them. *: point of attachment. NMeF = CN[C@@H](Cc1ccccc1)C(=O)O; NMeβAla = CN(CCC(=O)[*:2])[*:1]; NMeL = CN[C@@H](CC(C)C)C(=O)O; NMeV = CN[C@H](C(=O)O)C(C)C; NMeA = CN[C@@H](C)C(=O)O; Piperidide = C1CCN(*)CC1; dNMeA = CN[C@H](C)C(=O)O; Sar = CNCC(=O)O
Each item that follows carries a reported Papp at 18 hours, 50 µM.
Number only, in ×10⁻⁶ cm/s; omit the unit.

CC[C@H](C)[C@@H]1NC(=O)[C@H](Cc2ccccc2)N(C)C(=O)[C@H](C)N(C)C(=O)CN(C)C(=O)[C@H]([C@@H](C)O)NC(=O)[C@H](C)N(C)C(=O)[C@H](C(C)C)N(C)C(=O)[C@H](C)NC(=O)CCN(C)C(=O)C[C@@H](C(=O)N(C)[C@@H](Cc2ccccc2)C(=O)N(C)[C@@H](Cc2ccccc2)C(=O)N[C@@H](C)C(=O)N2CCCCC2)NC1=O [DP-498] ([NMeβAla]A[NMeV][NMeA]T[Sar][NMeA][NMeF]ID[NMeF][NMeF]A-Piperidide; lactam N-10) : 2.7
CC(C)C[C@H]1C(=O)N[C@@H]([C@@H](C)O)C(=O)NCC(=O)N[C@@H](C(C)C)C(=O)N[C@H](C(=O)N(C)[C@@H](Cc2ccccc2)C(=O)N[C@@H](C)C(=O)N2CCCCC2)CC(=O)N(C)[C@H](C)C(=O)N(C)[C@@H](C(C)C)C(=O)N[C@@H](Cc2ccccc2)C(=O)N(C)[C@@H](Cc2ccccc2)C(=O)N(C)[C@@H](C)C(=O)N1C [DP-356] ([dNMeA][NMeV]F[NMeF][NMeA][NMeL]TGVD[NMeF]A-Piperidide; lactam N-10) : 34

Consider the additional compound presented here.
In one line, give reported Papp at 18 hours, 50 µM of the entry CC[C@H](C)[C@@H]1NC(=O)CCN(C)C(=O)C[C@@H](C(=O)N2CCCCC2)NC(=O)[C@H](CC(C)C)N(C)C(=O)[C@H](Cc2ccccc2)NC(=O)[C@H](CC(C)C)N(C)C(=O)[C@H](CC(C)C)N(C)C(=O)[C@H](C)N(C)C(=O)[C@H](CC(C)C)N(C)C(=O)[C@H]([C@@H](C)O)NC(=O)[C@H](Cc2ccccc2)N(C)C(=O)[C@H](C)N(C)C(=O)[C@H](CC(C)C)N(C)C1=O [DP-958] ([NMeβAla]I[NMeL][NMeA][NMeF]T[NMeL][NMeA][NMeL][NMeL]F[NMeL]D-Piperidide; lactam N-13) . 0.54

----------
Each item that follows carries a reported Hepatic Microsome CLh, int (Mouse) In the absence of NADPH.
- Protocol details: Metabolic stability in mouse hepatic microsome
- Format: in vitro ADME
- Study conditions: 0.5 mg protein/mL, 1 uM, 30 minutes, without NADPH
Positions of bridges follow the written chain, without caps; N, C: chain ends. Non-standard residues stand in square brackets, D forms with d. Residues, ends and D or L forms follow the SMILES beside them. *: point of attachment. Bip = N[C@@H](Cc1ccc(-c2ccccc2)cc1)C(=O)O; NMeF = CN[C@@H](Cc1ccccc1)C(=O)O; NMeI = CC[C@H](C)[C@H](NC)C(=O)O; NMeL = CN[C@@H](CC(C)C)C(=O)O; NMeA = CN[C@@H](C)C(=O)O; Piperidide = C1CCN(*)CC1; Sar = CNCC(=O)O; tBu = CC(C)(C)*
Number only, in ul/min/mg Protein; omit the unit.

CC(C)C[C@H]1C(=O)N[C@@H](COC(C)(C)C)C(=O)N[C@H](C(=O)N2CCCCC2)CSCC(=O)N(C)[C@@H](Cc2ccccc2)C(=O)N(C)[C@@H](C)C(=O)N(C)[C@@H](Cc2ccccc2)C(=O)N(C)[C@@H](CC(C)C)C(=O)N[C@@H]([C@@H](C)O)C(=O)N(C)CC(=O)N1C [Compound P-108] ({CH2CO}-[NMeF][NMeA][NMeF][NMeL]T[Sar][NMeL]S(tBu)C-Piperidide; thioether N-9) : 5.2
CC[C@H](C)[C@H]1C(=O)N[C@@H](Cc2ccc(-c3ccccc3)cc2)C(=O)N[C@H](C(=O)N2CCCCC2)CSCC(=O)N(C)[C@@H](CC(C)C)C(=O)N[C@@H]([C@@H](C)O)C(=O)N(C)CC(=O)N(C)[C@@H](CC(C)C)C(=O)N[C@@H](CO)C(=O)N1C [Compound P-104] ({CH2CO}-[NMeL]T[Sar][NMeL]S[NMeI][Bip]C-Piperidide; thioether N-8) : 6.9

In one line, give reported Hepatic Microsome CLh, int (Mouse) In the absence of NADPH of the entry CC[C@H](C)[C@H]1C(=O)N[C@H](C(=O)N2CCCCC2)CSCC(=O)N(C)[C@@H](C)C(=O)N[C@@H](Cc2ccccc2)C(=O)N(C)[C@@H](CC(C)C)C(=O)N[C@@H]([C@@H](C)O)C(=O)N(C)CC(=O)N(C)[C@@H](CC(C)C)C(=O)N[C@@H](COC(C)(C)C)C(=O)N1C [Compound P-111] ({CH2CO}-[NMeA]F[NMeL]T[Sar][NMeL]S(tBu)[NMeI]C-Piperidide; thioether N-9) . 0

In one line, give reported Hepatic Microsome CLh, int (Mouse) In the absence of NADPH of the entry CC(C)C[C@H]1C(=O)N[C@@H](COC(C)(C)C)C(=O)N[C@H](C(=O)N2CCCCC2)CSCC(=O)N(C)[C@@H](Cc2ccccc2)C(=O)N(C)[C@@H](C)C(=O)N[C@@H](Cc2ccccc2)C(=O)N(C)[C@@H](CC(C)C)C(=O)N[C@@H]([C@@H](C)O)C(=O)N(C)CC(=O)N1C [Compound P-110] ({CH2CO}-[NMeF][NMeA]F[NMeL]T[Sar][NMeL]S(tBu)C-Piperidide; thioether N-9) . 6.1

In one line, give reported Hepatic Microsome CLh, int (Mouse) In the absence of NADPH of the entry CC(C)C[C@H]1C(=O)N[C@H](C(=O)N2CCCCC2)CSCC(=O)N(C)[C@@H](Cc2ccccc2)C(=O)N(C)[C@@H](C)C(=O)N[C@@H](Cc2ccccc2)C(=O)N(C)[C@@H](CC(C)C)C(=O)N[C@@H]([C@@H](C)O)C(=O)N(C)CC(=O)N1C [Compound P-105] ({CH2CO}-[NMeF][NMeA]F[NMeL]T[Sar][NMeL]C-Piperidide; thioether N-8) . 5.1

----------
Each item that follows carries a reported microsomal CLint at 1 uM.
- Protocol details: Metabolic stability in human hepatic microsome
- Type: in vitro ADME
- Study conditions: microsomes, pH 7.4; human hepatic microsome, NADPH(+); read-out: CL NADPH(+)
Positions of bridges follow the written chain, without caps; N, C: chain ends. Non-standard residues stand in square brackets, D forms with d. Residues, ends and D or L forms follow the SMILES beside them. *: point of attachment. NMeF = CN[C@@H](Cc1ccccc1)C(=O)O; NMeI = CC[C@H](C)[C@H](NC)C(=O)O; NMeL = CN[C@@H](CC(C)C)C(=O)O; NMeV = CN[C@H](C(=O)O)C(C)C; Piperidide = C1CCN(*)CC1; Sar = CNCC(=O)O; tBu = CC(C)(C)*
Number only, in µL/min/mg; omit the unit.

CC[C@H](C)[C@H]1C(=O)N(C)[C@@H](CC(C)C)C(=O)N[C@@H](Cc2ccccc2)C(=O)N[C@@H]([C@@H](C)O)C(=O)N[C@@H](CC(C)C)C(=O)N(C)[C@@H](Cc2ccccc2)C(=O)N(C)[C@@H](C(C)C)C(=O)N[C@H](C(=O)N(C)CC(=O)N[C@@H](C)C(=O)N2CCCCC2)CC(=O)N[C@H](C)C(=O)N[C@@H](C)C(=O)N1C [DP-672] ([dA]A[NMeI][NMeL]FTL[NMeF][NMeV]D[Sar]A-Piperidide; lactam N-10) : 72

Consider the additional compound presented here.
In one line, give reported microsomal CLint at 1 uM of the entry CC[C@H](C)[C@@H]1NC(=O)[C@H](Cc2ccccc2)N(C)C(=O)[C@@H](C)NC(=O)C[C@@H](C(=O)N2CCCCC2)NC(=O)[C@H](C(C)C)N(C)C(=O)[C@H](Cc2ccccc2)N(C)C(=O)[C@H](COC(C)(C)C)NC(=O)[C@H](CC(C)C)N(C)C(=O)CN(C)C(=O)[C@H]([C@@H](C)O)NC(=O)[C@H](CC(C)C)N(C)C1=O [DP-110] ([dA][NMeF]I[NMeL]T[Sar][NMeL]S(tBu)[NMeF][NMeV]D-Piperidide; lactam N-11) . 36
